Test system: Fibroblast
Assay: Multiplex assay against human fibroblast
Assay type: toxicity, cell-based
Settings: 12 h, 10 µM, compound concentration 10 uM, replicate 1
Flag rule - Population Tubulin-Different-Phenotype (%) less than 20% flags 1; the remaining entries get -1.

CC(C)(C)NC[C@H](O)COc1nsnc1N1CCOCC1    -1
C=CC(=O)Nc1cccc(Sc2nc(Nc3ccc(N4CCN(C)CC4)cc3)ncc2Cl)c1    1
Cc1nc(N2CC[C@H](O)C2)ncc1-c1cc(C(F)(F)F)cc2[nH]ncc12    1
Cl.O=C(O)c1cc(-c2ccc(C3CCNCC3)cc2)c2ccc(-c3ccc(C(F)(F)F)cc3)cc2c1    -1
C=CC(=O)Nc1cccc(Oc2nc(Nc3ccc(N4CCN(C)CC4)cc3OC)ncc2Cl)c1    1
Cc1ccc2c(c1)c1c(n2CCc2ccc(C)nc2)CCN(C)C1 [LATREPIRDINE]    -1
COc1cc2ncn(-c3cc(OCc4ccccc4C(F)(F)F)c(C(N)=O)s3)c2cc1OC [GW843682X]    -1
Cc1c[nH]c2nccc(Oc3c(F)cc(Nc4cc(Cl)nc(N)n4)cc3F)c12    -1
CC(C)c1noc(N2CCC(COc3ccc(-c4ccc(S(C)(=O)=O)cc4)nc3)CC2)n1    -1
COc1cc(Nc2nccc(-c3cnn4nc(OC)ccc34)n2)cc(C(F)(F)F)c1    -1
CCc1ccc(OCc2ccccc2C(=O)Nc2ccc3nc(C)cc(N)c3c2)cc1.Cl    -1
CCC1=C[C@@H]2C[N@](C1)Cc1c([nH]c3ccccc13)[C@@](C(=O)OC)(c1cc3c(cc1OC)N(C)[C@H]1[C@@](O)(C(=O)OC)[C@H](OC(C)=O)[C@]4(CC)C=CCN5CC[C@]31[C@@H]54)C2.O=C(O)C(O)C(O)C(=O)O.O=C(O)C(O)C(O)C(=O)O [VINORELBINE TARTRATE]    1
COc1ccccc1CN[C@H]1C2CCN(CC2)[C@H]1C(c1ccccc1)c1ccccc1    -1
CNC(=O)Nc1ccc(-c2nc(N3CC4CCC(C3)O4)c3cnn(C4CCC5(CC4)OCCO5)c3n2)cc1    -1
C[C@]12CC[C@@H]3c4ccc(O)cc4CC[C@H]3[C@@H]1CC[C@@H]2O    -1
O=c1cc(N2CCOCC2)oc2c(-c3cccc4c3sc3ccccc34)cccc12    -1
CN1CCN(Cc2ccc(Nc3ncc(Cl)c(Nc4ccccc4S(=O)(=O)N(C)C)n3)cc2)CC1    -1
CNC(=O)Nc1ccc2c(c1)[C@@]1(CC2)OC(=O)N(CC(=O)N(Cc2ccc(F)cc2)[C@@H](C)C(F)(F)F)C1=O    1
C=CC(=O)Nc1ccc2[nH]c(=O)n(C3CCN(Cc4ccc(-c5nc6cc[nH]c(=O)c6cc5-c5ccccc5)cc4)CC3)c2c1    -1
CC(C)CC(=O)Nc1[nH]nc2c1CN(C(=O)C1CCN(C)CC1)C2(C)C    1
CC(C)OC(=O)N1CCC(Oc2ncnc3c2cnn3-c2ccc(S(C)(=O)=O)cc2F)CC1    -1
CC1=C(C(=O)Nc2cc3cn[nH]c3cc2F)C(c2ccc(C(F)(F)F)cc2)CC(=O)N1 (configuration not stated)    -1
COc1ccc(-c2ccc3ncc4c(c3c2)n(-c2ccc(N3CCNCC3)c(C(F)(F)F)c2)c(=O)n4C)cn1.O=C(O)/C=C\C(=O)O    1
COC(=O)C1=C(C)NC(C)=C(C(=O)OCCCN2CCC(c3ccccc3)(c3ccccc3)CC2)[C@H]1c1cccc([N+](=O)[O-])c1    -1
CC(C)Oc1ccccc1C(=O)Nc1ccccc1C(=O)Nc1cccc(S(=O)(=O)C(F)(F)F)c1    -1
CCc1nn(CCCN2CCN(c3cccc(Cl)c3)CC2)c(=O)n1CCOc1ccccc1.Cl [NEFAZODONE HYDROCHLORIDE]    -1
O=c1[nH]c2ccccc2n1C1CCN(Cc2ccc(-c3[nH]c4cc5ncnc5cc4nc3-c3ccccc3)cc2)CC1    -1

Provenance of the data: ChEMBL document CHEMBL4689842
